Assay: in vivo
Set-up: species or system white rabbits
Details: rabbit, topical or ocular, Concentration of drug in blood
measuredQuantity: concentration at 6 h
A complete answer gives the number followed by the unit.

Look at this compound and give its reported concentration at 6 h. COc1ccc2c(c1)c(CC(=O)O)c(C)n2C(=O)c1ccc(Cl)cc1
20 ng/mL

====

Test: Ketoprofen concentration in the blood after application to rabbit abdomen
Assay type: in vivo, white rabbits
Settings: rabbit, blood, topical or ocular, 32° C.; 24 hr; read-out: Concentration of drug in blood
measuredQuantity: concentration at 24 h (ng/mL)
Write the value in ng/mL as a bare number.

Look at this compound and give its reported concentration at 24 h. CC(C(=O)O)c1cccc(C(=O)c2ccccc2)c1 (stereo not shown) [ketoprofen]
18

These entries and their values trace back to patent US4968539A.
